The measured values listed here are drawn from PubChem BioAssay (NCI).

- Tested on: T-47D breast
- Procedure details: NCI tumour cell line growth inhibition, 48 h
Listed next: entries and their corresponding GI50.
Measurement type: GI50

Molecular string | Measurement type | Reported
COC(=O)COc1ccccc1/C=C1/N=C(c2ccccc2)N(c2c(C)n(C)n(-c3ccccc3)c2=O)C1=O | GI50 | 30.5 µM
CCCCNC(=O)CC1=C(C)/C(=C/c2[nH]c(-c3ccc[nH]3)cc2OC)N=C1C | GI50 | 2.41 µM
O=C(NNC1=NS(=O)(=O)c2ccccc2N1c1ccccc1)c1cnccn1 | GI50 | > 100 µM
Cc1ccc(/C=C(/C#N)n2nnc3cccc(F)c32)cc1 | GI50 | 0.509 µM
N#Cc1ncc(-c2ccc(C(F)(F)F)cc2)c(NC2CCCCCC2)n1 | GI50 | 6 µM

====

- System: HS 578T breast
- Procedure details: NCI tumour cell line growth inhibition, 48 h
Measurement type: TGI

Molecule | Measurement type | Reported
COc1cc2c3c(n(CCCNCCCCN)c(=O)c2cc1OC)-c1cc2c(cc1C3=O)OCO2 | TGI | 16.1 µM
O=c1c2ccccc2nc(-c2ccccc2)n1/N=C/c1ccccc1[N+](=O)[O-] | TGI | 15.9 µM
CN(C)/C=N/c1cc(=O)n(C)c(=O)n1C | TGI | > 100 µM
Cc1cc2c(C(C)C)c(O)c(O)c(/C=N/O)c2c(O)c1-c1c(C)cc2c(C(C)C)c(O)c(O)c(/C=N/O)c2c1O | TGI | 27.4 µM
N#Cc1ncc(-c2ccc(C(F)(F)F)cc2)c(NC2CCCCCC2)n1 | TGI | > 100 µM
CNc1ccc(C)cc1S(=O)(=O)c1ccccc1[N+](=O)[O-] | TGI | > 100 µM
O=S(=O)(Cc1ccccc1)c1nnc(S(=O)(=O)c2ccc(Cl)cc2)s1 | TGI | 39.8 µM
C/C=C(/C)C(=O)OC1C=C(CO)C(=O)C(OC(=O)C2(C)OC2C)C1C(C)C (stereo not drawn) | TGI | 22.9 µM
CN1CCOC1(C)c1ccccc1 (stereo not drawn) | TGI | > 100 µM
C#CC(O)/C=C/C(O)CCCC(O)CC#CC(O)C#CCCCCC(O)/C=C/CCCCCC(=O)CCCCCCCCCCCCCC(O)C(O)C#CC(=O)O (stereo not drawn) | TGI | > 25 µM
O=C(CCl)N1CCN(c2ccccc2)CC1 | TGI | 76.7 µM
CSc1ncc2c(C#N)c3n(C)c4ccccc4n3c(=O)c2n1 | TGI | > 100 µM
COc1ccc(NC(=O)CSc2nc(C)nc3c2sc(=S)n3-c2ccccc2)cc1 | TGI | > 10 µM
O=C1NC(=Nc2ccccc2Cl)N/C1=C\c1c(Cl)cccc1Cl | TGI | 99 µM
Oc1c(Cl)cc(Cl)c(Cl)c1Cc1c(O)c(Cl)cc(Cl)c1Cl | TGI | 51.3 µM
CN(C)Cc1ccc(O)c(CN(C)C)n1 | TGI | > 100 µM
c1ccc(C2=Nc3ccccc3N3CNN=C23)cc1 | TGI | > 100 µM
COc1ccc(CCn2ccc(C)n2)c(OC)c1 | TGI | > 100 µM
COC(=O)NC1=Nc2ccccc2C(=O)NN1 | TGI | > 100 µM
C=C(CC)C(=O)c1ccc(OCC(=O)O)c(Cl)c1Cl | TGI | 45.9 µM
COC(=O)C1=C(N)C2=C(N)Oc3ccccc3C2CC1=C(C#N)C#N (stereo not drawn) | TGI | 97.9 µM
CCOC(=O)C(Cc1ccccc1)n1c(O)c(/C=N/c2ncc(Cc3ccc(Cl)cc3Cl)s2)sc1=S (stereo not drawn) | TGI | 41.1 µM
CC(=O)Nn1c(Cc2ccc(Cl)cc2)nn(C)c1=O | TGI | > 100 µM
